biological target: GDP-bound KRAS wild-type protein (Homo sapiens); assay: Binding to KRAS by surface plasmon resonance (SPR), dissociation constant KD; conditions: Single Cycle Kinetics
Sequence (P01116 1-188 isoform P01116-2): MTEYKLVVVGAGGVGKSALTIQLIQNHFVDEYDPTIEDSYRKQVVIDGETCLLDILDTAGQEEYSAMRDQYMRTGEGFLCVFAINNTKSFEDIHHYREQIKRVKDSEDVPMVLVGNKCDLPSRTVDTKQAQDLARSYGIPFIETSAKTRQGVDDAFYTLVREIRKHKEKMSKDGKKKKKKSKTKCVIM
property: Kd (pM)
Respond numerically; units are pM and should not be typed.

test.smiles: CCO[C@@H]1C[C@H]2C(=O)OC3(CCC3)C(=O)N(C)[C@@H](C3CCCC3)C(=O)N(C)[C@H](C(=O)N(C)C)CC(=O)N(C)[C@@H]([C@H](C)OC)C(=O)N[C@@H]([C@@H](C)CC)C(=O)N(C3CC3)CC(=O)N(C)[C@H]3C/C=C\CCN(C3=O)[C@@H](Cc3ccc(C(F)(F)F)cc3)C(=O)N(C)CC(=O)N[C@@H](CCc3ccc(C(F)(F)F)c(OC)c3)C(=O)N2C1
readout.units: pM
Kd: 1300

test.smiles: CCCO[C@@H]1C[C@H]2C(=O)NC3(CC(C)(C)C3)C(=O)N(C)[C@@H](C3CCCC3)C(=O)N(C)[C@H](C(=O)N(C)CC)CC(=O)N(C)[C@@H](COCC)C(=O)N[C@@H]([C@@H](C)CC)C(=O)N(C)CC(=O)N(C)[C@H]3C/C=C\CCN(C3=O)[C@@H](Cc3ccc(C)cc3)C(=O)N(C)CC(=O)N[C@@H](CCc3cc(F)c(C(F)(F)F)c(F)c3)C(=O)N2C1
readout.units: pM
Kd: 150

test.smiles: CCC[C@H]1C(=O)N[C@@H](C2CCCC2)C(=O)N(C)CC(=O)N(C)[C@H]2C/C=C\CCN(C2=O)[C@@H](Cc2ccc(C)cc2)C(=O)N(C)CC(=O)N[C@@H](CCc2ccc(C(F)(F)F)c(OC)c2)C(=O)N2CC3(CC3)C[C@H]2C(=O)NC2(CCC2)C(=O)N(C)[C@@H](C(CC)CC)C(=O)N(C)[C@H](C(=O)N(C)C)CC(=O)N1C
readout.units: pM
Kd: 700

test.smiles: CCC[C@H]1C(=O)N[C@@H]([C@@H](C)CC)C(=O)N2CCC[C@H]2C(=O)N(C)[C@H]2C/C(F)=C\CCN(C2=O)[C@@H](Cc2ccc(C)cc2)C(=O)N(C)CC(=O)N[C@@H](CCc2cc(F)c(C(F)(F)F)c(F)c2)C(=O)N2C[C@H](OCC)C[C@H]2C(=O)N(C)C2(CCC2)C(=O)N(C)[C@@H](C2CCCC2)C(=O)N(C)[C@H](C(=O)N(C)C)CC(=O)N1C
readout.units: pM
Kd: 290

test.smiles: CCO[C@@H]1C[C@H]2C(=O)NC3(CC(C)(C)C3)C(=O)N(C)[C@@H](C3CCCC3)C(=O)N(C)[C@H](C(=O)N(C)C)CC(=O)N[C@@H](CC(C)C)C(=O)N[C@@H]([C@@H](C)CC)C(=O)N(C)CC(=O)N(C)[C@H]3C/C=C\CCN(C3=O)[C@@H](Cc3ccc(C(F)(F)F)cc3)C(=O)N(C)CC(=O)N[C@@H](CCc3ccc(C(F)(F)F)c(Cl)c3)C(=O)N2C1
readout.units: pM
Kd: 190

So what's the measured Kd for this one? C#CC[C@H]1C(=O)N[C@@H]([C@@H](C)CC)C(=O)N(C)CC(=O)N(C)[C@H]2C/C=C\CCN(C2=O)[C@@H](Cc2ccc(C)cc2)C(=O)N(C)CC(=O)N[C@@H](CCc2cc(F)c(C(F)(F)F)c(F)c2)C(=O)N2C[C@H](OCC)C[C@H]2C(=O)N(C)C2(CCC2)C(=O)N(C)[C@@H](C2CCCC2)C(=O)N(C)[C@H](C(=O)N(C)C)CC(=O)N1C
22

Source listed as patent EP4603105A1.
